IC50 listing for selected compounds.
# ASSAYED TARGET: human recombinant ATX (Homo sapiens, UniProt Q13822)
# METHOD NOTES: Autotaxin (ATX) activity Quanta Red assay
# Type: biochemical
# MEASUREMENT PARAMETERS: Table 2: additional compounds tested for ATX activity (Quanta Red Assay); read-out: Activity
REPORTED ENDPOINT: IC50 (nM)

COMPOUND STRUCTURE STRING: COc1ccc(Cn2c(CCC(=O)NCc3cccc(Cl)c3)nc3cccnc32)cc1
REPORTED ENDPOINT: IC50
SCALE UNIT: nM
NUMBER: 200

COMPOUND STRUCTURE STRING: COc1ccc(Cn2c(CCC(=O)NCCc3cccc(C)c3)nc3cccnc32)cc1
REPORTED ENDPOINT: IC50
SCALE UNIT: nM
NUMBER: 466

COMPOUND STRUCTURE STRING: O=C(CCc1nc2cccnc2n1Cc1cccs1)NCc1ccc(F)cc1
REPORTED ENDPOINT: IC50
SCALE UNIT: nM
NUMBER: 685

COMPOUND STRUCTURE STRING: COc1ccc(Cn2c(CCC(=O)Nc3ccc(F)cc3)nc3cccnc32)cc1
REPORTED ENDPOINT: IC50
SCALE UNIT: nM
NUMBER: 3830

COMPOUND STRUCTURE STRING: CCCCNC(=O)CCc1nc2cccnc2n1Cc1ccccc1
REPORTED ENDPOINT: IC50
SCALE UNIT: nM
NUMBER: 8810

* * *

The molecules listed here are annotated with their IC50.
# ASSAYED TARGET: human recombinant ATX (Homo sapiens)
# METHOD NOTES: Autotaxin (ATX) activity Quanta Red assay
# Assay type: biochemical
# MEASUREMENT PARAMETERS: read-out: Activity (ATX activity, Quanta Red assay; IC50)

MOLECULE: O=C(CCc1nc2cccnc2n1Cc1ccc(OC(F)(F)F)cc1)N[C@H](Cc1ccccc1)C(=O)O [Example 195]
ASSAYED TARGET: human recombinant ATX (Homo sapiens)
IC50: 1 nM
--
MOLECULE: COc1ccc(CNC(=O)CCc2nc3cccnc3n2Cc2ccc(OC(F)(F)F)cc2)cc1 [Example 14]
ASSAYED TARGET: human recombinant ATX (Homo sapiens)
IC50: 2 nM
--
MOLECULE: Cc1ccc([C@H](C)NC(=O)CCc2nc3ccncc3n2Cc2ccc(F)cc2)cc1 [Example 131]
ASSAYED TARGET: human recombinant ATX (Homo sapiens)
IC50: 23 nM
--
MOLECULE: C[C@H](NC(=O)CCc1nc2cccnc2n1Cc1ccc(F)cc1)c1ccc(N2CCCCC2)cc1 [Example 186]
ASSAYED TARGET: human recombinant ATX (Homo sapiens)
IC50: 13 nM
--
MOLECULE: Cc1ccc2nc(CCC(=O)N[C@@H](C)c3ccc(F)cc3)n(Cc3ccc(F)cc3)c2n1 [Example 121]
ASSAYED TARGET: human recombinant ATX (Homo sapiens)
IC50: 269 nM
--
MOLECULE: C[C@H](NC(=O)CCc1nc2cccnc2n1Cc1ccc(F)cc1)c1ccc(F)cc1 [Example 88]
ASSAYED TARGET: human recombinant ATX (Homo sapiens)
IC50: 6 nM
--
MOLECULE: Cc1cnc(NC(=O)CCc2nc3cccnc3n2Cc2ccc(OC(F)(F)F)cc2)s1 [Example 81]
ASSAYED TARGET: human recombinant ATX (Homo sapiens)
IC50: 1480 nM
--
MOLECULE: O=C(COc1nc2cccnc2n1Cc1ccc(OC(F)(F)F)cc1)N[C@@H](CO)c1ccccc1 [Example 151]
ASSAYED TARGET: human recombinant ATX (Homo sapiens)
IC50: 3 nM
--
MOLECULE: COc1ccc([C@H](C)NC(=O)CCc2nc3cc(C)cnc3n2Cc2ccc(OC(F)(F)F)cc2)cc1 [Example 212]
ASSAYED TARGET: human recombinant ATX (Homo sapiens)
IC50: 7 nM
--
MOLECULE: C[C@H](NC(=O)CCc1nc2cccnc2n1Cc1ccc(F)cc1)c1ccccc1 [Example 87]
ASSAYED TARGET: human recombinant ATX (Homo sapiens)
IC50: 6 nM
--
MOLECULE: Cc1ccc2nc(CCC(=O)N[C@@H](C)c3ccc(Cl)cc3)n(Cc3ccc(F)cc3)c2n1 [Example 79]
ASSAYED TARGET: human recombinant ATX (Homo sapiens)
IC50: 94 nM
--
MOLECULE: NC[C@H](NC(=O)CCc1nc2cccnc2n1Cc1ccc(OC(F)(F)F)cc1)c1ccccc1 [Example 210]
ASSAYED TARGET: human recombinant ATX (Homo sapiens)
IC50: 3 nM
--
MOLECULE: COc1ccc(CNC(=O)CCc2nc3cccc(F)c3n2Cc2ccc(OC)cc2)cc1 [Example 91]
ASSAYED TARGET: human recombinant ATX (Homo sapiens)
IC50: 14 nM
--
MOLECULE: C[C@H](NC(=O)CCc1cc2cccnc2n1Cc1ccc(F)cc1)c1ccc(F)cc1 [Example 140]
ASSAYED TARGET: human recombinant ATX (Homo sapiens)
IC50: 13 nM

* * *

# ASSAYED TARGET: human recombinant ATX (Homo sapiens)
# METHOD NOTES: Autotaxin (ATX) activity Quanta Red assay
# Format: biochemical
# MEASUREMENT PARAMETERS: read-out: Activity (ATX activity, Quanta Red assay; IC50)

COMPOUND: CC(NC(=O)CCc1nc2cccnc2n1Cc1ccc(OC(F)(F)F)cc1)C1CCN(C(=O)OC(C)(C)C)CC1 (stereo not shown)
ASSAYED TARGET: human recombinant ATX (Homo sapiens)
IC50: 11 nM

COMPOUND: C[C@H](NC(=O)CCc1nc2cccnc2n1Cc1ccc(OCc2ccccc2)cc1)c1ccc(F)cc1
ASSAYED TARGET: human recombinant ATX (Homo sapiens)
IC50: 844 nM

COMPOUND: CCC[C@H](NC(=O)CCc1nc2cccnc2n1Cc1ccc(OC)cc1)c1ccccc1
ASSAYED TARGET: human recombinant ATX (Homo sapiens)
IC50: 48 nM

COMPOUND: COc1ccc(CNC(=O)CCc2nc3cccnc3n2Cc2ccc(C)cc2)cc1
ASSAYED TARGET: human recombinant ATX (Homo sapiens)
IC50: 57 nM

COMPOUND: O=C(CCc1nc2cccnc2n1Cc1ccc(F)c(F)c1)NC[C@@H](O)c1ccccc1
ASSAYED TARGET: human recombinant ATX (Homo sapiens)
IC50: 155 nM

COMPOUND: C[C@H](NC(=O)NCc1nc2cccnc2n1Cc1ccc(F)c(F)c1)c1ccc(Br)cc1
ASSAYED TARGET: human recombinant ATX (Homo sapiens)
IC50: 17 nM

COMPOUND: C[C@@H](NC(=O)CCc1nc2cccnc2n1Cc1ccc(OC(F)(F)F)cc1)c1ccc(Cl)cc1
ASSAYED TARGET: human recombinant ATX (Homo sapiens)
IC50: 21 nM

COMPOUND: C[C@H](NC(=O)CCc1nc2ccncc2n1Cc1ccc(OC(F)(F)F)cc1)c1ccc(N2CCN(C)CC2)cc1
ASSAYED TARGET: human recombinant ATX (Homo sapiens)
IC50: 9 nM

COMPOUND: C[C@H](NC(=O)CCc1nc2cccnc2n1Cc1ccc(F)cc1)c1ccc(Br)cc1
ASSAYED TARGET: human recombinant ATX (Homo sapiens)
IC50: 2 nM

COMPOUND: O=C(CCc1nc2cccnc2n1Cc1ccc(F)c(F)c1)N[C@@H]1c2ccccc2C[C@H]1O
ASSAYED TARGET: human recombinant ATX (Homo sapiens)
IC50: 63 nM

COMPOUND: O=C(CCc1nc2cccnc2n1Cc1ccc(OC(F)(F)F)cc1)NC[C@@H](O)c1ccccc1
ASSAYED TARGET: human recombinant ATX (Homo sapiens)
IC50: 7 nM

COMPOUND: Cc1csc(NC(=O)CCc2nc3cccnc3n2Cc2ccc(OC(F)(F)F)cc2)n1
ASSAYED TARGET: human recombinant ATX (Homo sapiens)
IC50: 714 nM

COMPOUND: CN(C)c1ccc(CNC(=O)CCc2nc3cccnc3n2Cc2ccc(F)cc2)cc1
ASSAYED TARGET: human recombinant ATX (Homo sapiens)
IC50: 61 nM

COMPOUND: COc1ccc(CNC(=O)CCc2nc3cc(C)cnc3n2Cc2ccc(F)cc2)cc1
ASSAYED TARGET: human recombinant ATX (Homo sapiens)
IC50: 185 nM

COMPOUND: O=C(CCc1nc2cccnc2n1Cc1ccc(F)cc1)NC(CO)c1ccc(F)cc1 (stereo not shown)
ASSAYED TARGET: human recombinant ATX (Homo sapiens)
IC50: 19 nM

COMPOUND: C[C@H](NC(=O)CCc1nc2cccnc2n1Cc1ccc(F)cc1)c1ccccn1
ASSAYED TARGET: human recombinant ATX (Homo sapiens)
IC50: 212 nM

COMPOUND: O=C(CCc1nc2cccnc2n1Cc1ccc(OC(F)(F)F)cc1)N[C@@H](C(=O)O)C1CCCCC1
ASSAYED TARGET: human recombinant ATX (Homo sapiens)
IC50: 1 nM

COMPOUND: O=C(CCc1nc2ccncc2n1Cc1ccc(OC(F)(F)F)cc1)N[C@@H](CO)c1ccccc1
ASSAYED TARGET: human recombinant ATX (Homo sapiens)
IC50: 3 nM

COMPOUND: COc1ccc(CCNC(=O)CCc2nc3cccnc3n2Cc2ccc(OC)cc2)cc1
ASSAYED TARGET: human recombinant ATX (Homo sapiens)
IC50: 778 nM
